assay: yeast display, Sf9 membrane polyspecificity reagent, FACS + sequencing; frameworks hold sequencing errors
PROPERTY NAME: polyreactivity (PSR sort gate)

Illustrative cases are given below, each with its answer.
- POLYMER SEQUENCE: "QVQLVESGGGLVQAGGSLRISCAASGRIFRYYAMGWYRQAPGKERELVAAISNSGGRTYYADSVKRRFTISRDNAKNSVYLQMNSLKPEDTAVYYCKKAHSYRGVSDSDMGYWGQGTEVTVSS"
  polyreactivity (PSR sort gate): "high polyreactivity"
- POLYMER SEQUENCE: "QVQLVESGGGLVQAGGSLRLSCAASGRTFYRNAMGWYRQAPGKERELVATITRRGGSTYYADSVKGRFTISRDNAKNTVYLQMISLKPEDTAVYYCAAGSKDLYRPYDYWGQGTQVTVSS"
  polyreactivity (PSR sort gate): "high polyreactivity"
- POLYMER SEQUENCE: "QVQLVESGGGLVQAGGSLRLSCAASGITFEDYAMGWYRQAPGKERELVAAITSNGGSTYYADSVKGRFTISRDNAKNTVYLQMNSLKPEDTAVYYCAATKYFSYYGRVSWADGGYWGQGTQVTVSS"
  polyreactivity (PSR sort gate): "low polyreactivity"
- POLYMER SEQUENCE: "QVQLVESGGGLVQAGGSLRLSCAASGRIFVRYAMGWYRQAPGKERELVATITKNGGRTYYADSVKGRFTISRDNAKNTVYLQMNSLKPEDTAVYYCAARPTYVADHLRYGYWGQGTQVTVSS"
  polyreactivity (PSR sort gate): "high polyreactivity"

INPUT: Please look up its polyreactivity (PSR sort gate): QVQLVESGGGLVQAGGSLRLSCAASGSIFVLYAMGWYRQAPGKEREFVAAISRSGGSTYYADSVKGRFTISRDNAKNTVYLQMNSLKPEDTAVYYCAASSRLNRWNYYAFDYWGQGTQVTVSS
OUTPUT: high polyreactivity

INPUT: Please look up its polyreactivity (PSR sort gate): QVQLVESGGGLVQAGGSLRLSCAASGRTFGYNTMGWYRQAPGKERELVAVITQGVDITYYADSVKGRFTISRDNAKNTVYLQMNSLKPEDTAVYYCNTAGQDAEYDYWGQGTQVTVSS
OUTPUT: low polyreactivity

INPUT: Please look up its polyreactivity (PSR sort gate): QVQLVESGGGLVQAGGSIRLSCAASGRIFGRNAMGWYRQAPGKERELVAAISSSGGTYYADSGKGRFTISRDNAKNTVYLQMNSLKPEDTAVYYCNGRVRTQQRWVDYWGQGTQVTVSS
OUTPUT: high polyreactivity

INPUT: Please look up its polyreactivity (PSR sort gate): QVQLVESGGGLVQAGGSLRLSCAASGRIFAYYAMGWYRQAPGKERELVATIRSGGDTNYADSVKGRFTISRDNAKNTVYLQMNSLKPEDTAVYYCNALYDWWYPHEYNYWGQVTQVTVSS
OUTPUT: low polyreactivity

INPUT: Please look up its polyreactivity (PSR sort gate): QVQLVESGGGLVQAGGSLRLSCAASGFTFTAYAMGWYRQAPGKERELVAAISSGGSTYYADSVKGRFTISRDNAKNTVYLQMNSLKPEDTAVYYCSAVGVYTVKRDYWGQGTQVTVSS
OUTPUT: low polyreactivity

INPUT: Please look up its polyreactivity (PSR sort gate): QDQLVESGGGLVQAGGSLRLSCASSVRTIYIYAMGWYRHPPGKESEFVASITGRGTRTYYADSVKGRFTISRDNAKNTVYLQMNSLTQEDTAVYYCNARGKVQSSYDEDYWGQGTQVTVSS
OUTPUT: high polyreactivity

INPUT: Please look up its polyreactivity (PSR sort gate): QVQLVESGGGLVQAGGSLRLSCAASGLIFYRYTMGWYRQAPGKERELVAAISWSGGRTYYADSVKGRFTISRDNAKNTVYLQMNSLKPEDTAVYYCNAVYYYTRASVPYDYWGQGTQVTVSS
OUTPUT: high polyreactivity
